Experiment: UV absorption (UV-VIS spectra in 2-propanol, 1 mg/100 ml)
Type: physicochemical
Design: unit not given here
Settings: 1 mg/100 ml; value in brackets after λmax in the synthesis example
reported.endpoint: UV absorbance at λmax (1 mg/100 ml)
Enter a number only.

# annotated cases, reported UV absorbance at λmax (1 mg/100 ml) shown
molecule="CN(C)c1ccc(C(=O)NCC(O)CO[Si](C)(C)C(C)(C)C)cc1 (stereo not drawn)" measured_value=0.64
molecule="CCCCC(CC)COc1ccc(/C=C/C(=O)NCC(=O)CO)cc1 (stereo not drawn)" measured_value=0.706
molecule=CN(C)c1ccc(C(=O)NCC(=O)CO)cc1 measured_value=0.575
molecule=COc1ccc(/C=C/C(=O)NCC(=O)CO[Si](C)(C)C(C)(C)C)cc1 measured_value=0.843
molecule=N#CC(C(=O)OCC(=O)CO)=C(c1ccccc1)c1ccccc1 measured_value=0.375

Task: Which UV absorbance at λmax (1 mg/100 ml) reading was recorded for the molecule CN(C)c1ccc(C(=O)OCC(=O)CO)cc1 ?
Result: 1.213

Task: Param item: COc1ccc(/C=C/C(=O)NCC(O)CO[Si](C)(C)C(C)(C)C)cc1 (stereo not drawn)
Result: 0.481

Task: Same question for CCCCC(CC)COc1ccc(/C=C/C(=O)NCC(O)CO)cc1 (stereo not drawn) [Example 10c] please.
Result: 0.688

Task: Also, CN(C)c1ccc(C(=O)OCC(O)CO[Si](C)(C)C(C)(C)C)cc1 (stereo not drawn) please.
Result: 1.01

* * *

Assay: UV absorption (UV-VIS spectra in 2-propanol, 1 mg/100 ml)
Format: physicochemical
Conditions: solvent 2-Propanol, c 1 mg/100 ml
Recorded UVB (280-320 nm) max. abs by entry

Use these answered entries as a reference point.
compound="COC(CO)(COCc1ccc(/C=C2\\C(=O)C3CCC2(C)C3(C)C)cc1)OC (stereo not drawn)" reported_endpoint="UVB (280-320 nm) max. abs" measured_value=0.615
compound="CC12CCC(C(=O)/C1=C\\c1ccc(CNCC(O)CO)cc1)C2(C)C (stereo not drawn)" reported_endpoint="UVB (280-320 nm) max. abs" measured_value=0.692
compound="COc1ccc(/C=C/C(=O)OCC2COC(C)(C)O2)cc1 (stereo not drawn)" reported_endpoint="UVB (280-320 nm) max. abs" measured_value=0.796
compound="CN(C)c1ccc(C(=O)OCC(=O)CO)cc1 [drawing 83]" reported_endpoint="UVB (280-320 nm) max. abs" measured_value=1.213
compound="COc1ccc(/C=C/C(=O)NCC(O)CO)cc1 (stereo not drawn) [drawing 94]" reported_endpoint="UVB (280-320 nm) max. abs" measured_value=0.914

Task: Could you share which UVB (280-320 nm) max. abs value was measured for CC1(C)OCC(COc2ccc(C(=O)c3ccccc3)c(O)c2)O1 (stereo not drawn) ?
Result: 0.473

Task: Please answer likewise for CN(Cc1ccc(/C=C2\C(=O)C3CCC2(C)C3(C)C)cc1)CC(O)CO (stereo not drawn)
Result: 0.711

Task: Then this compound: COc1ccc(/C=C/C(=O)OCC(O)CO)cc1 (stereo not drawn)
Result: 0.881

Task: Subsequent entry: COc1ccc(/C=C/C(=O)NCC(=O)CO)cc1 [drawing 81]
Result: 0.941

Task: Now give it for COc1ccc(/C=C/C(=O)NCC(O)CO[Si](C)(C)C(C)(C)C)cc1 (stereo not drawn) [drawing 93] too.
Result: 0.694

Task: Next up: COc1ccc(/C=C/C(=O)OCC(=O)CO)cc1 [drawing 74]
Result: 0.893

Task: Moving on to CN(C)c1ccc(C(=O)NCC(=O)CO)cc1 [drawing 85]
Result: 0.575

Task: COc1ccc(/C=C/C(=O)NCC(O)CO)cc1 (stereo not drawn) [drawing 75] , same question.
Result: 0.936

Task: Could you do the same for CCCCC(CC)COc1ccc(/C=C/C(=O)NCC(=O)CO)cc1 (stereo not drawn) [drawing 90] , please?
Result: 0.706

Task: Same question, CN(C)c1ccc(C(=O)NCC(O)CO)cc1 (stereo not drawn) [drawing 82] this time
Result: 0.947

Task: Another compound: COc1ccc(/C=C/C(=O)N(C)CC(O)CO)cc1 (stereo not drawn) [drawing 96]
Result: 0.715

Task: Would you kindly repeat that for N#CC(C(=O)OCC(=O)COC(=O)C(C#N)=C(c1ccccc1)c1ccccc1)=C(c1ccccc1)c1ccccc1 [drawing 78] ?
Result: 0.031

Task: Can you check N#CC(C(=O)OCC(=O)CO)=C(c1ccccc1)c1ccccc1 [drawing 77] next?
Result: 0.375

Task: Then what about the compound O=C(c1ccccc1)c1ccc(OCC(O)CO)cc1O (stereo not drawn) ?
Result: 0.537

Task: Same question for CCCCC(CC)COc1ccc(/C=C/C(=O)NCC(O)CO)cc1 (stereo not drawn) [drawing 89] please.
Result: 0.688

Task: Same question, COc1ccc(/C=C/C(=O)OCC(=O)COC(=O)/C=C/c2ccc(OC)cc2)cc1 [drawing 73] this time
Result: 0.107
